List of pKi tested on casein kinase 1ε (Homo sapiens, UniProt P49674).
Sequence (P49674 whole entry): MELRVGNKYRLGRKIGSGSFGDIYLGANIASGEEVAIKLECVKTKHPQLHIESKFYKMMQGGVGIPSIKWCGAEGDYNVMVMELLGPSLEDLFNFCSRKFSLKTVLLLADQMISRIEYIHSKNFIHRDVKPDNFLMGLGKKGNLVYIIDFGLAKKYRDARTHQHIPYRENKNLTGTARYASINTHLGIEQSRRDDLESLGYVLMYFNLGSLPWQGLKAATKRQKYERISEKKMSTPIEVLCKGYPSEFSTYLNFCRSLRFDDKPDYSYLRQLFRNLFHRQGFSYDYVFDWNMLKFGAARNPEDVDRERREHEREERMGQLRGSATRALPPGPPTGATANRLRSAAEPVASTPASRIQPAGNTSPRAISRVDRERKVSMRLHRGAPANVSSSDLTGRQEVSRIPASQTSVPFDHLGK
One number for each entry, as −log10 of the molar value.

Sample records with pKi:
MOLECULE: Cc1ccc(CNCc2ccc3c(Sc4ccccc4)c(C(N)=O)[nH]c3c2)cc1 [IIf]
pKi: 6.09

MOLECULE: NC(=O)c1[nH]c2ccc(CNCc3ccccc3)cc2c1Sc1ccccc1 [If]
pKi: 6.15

MOLECULE: NC(=O)c1[nH]c2cc(CNC(=O)C(N)CC(=O)O)ccc2c1Sc1ccccc1 (centres unmarked) [IIae]
pKi: 6.11

// moving on: another record for pKi
Input line: // returns reported pKi for input NC(=O)c1[nH]c2cc(CNCc3ccc(-c4ccccc4)cc3)ccc2c1Sc1ccccc1 [IIj]
Output line: 5.86
